Hello, the source for this data is patent US20180339057A1, in case you need it.

The binders listed here are annotated with their pIC50.
Target: T1, human MIC-1 receptor (hGFRAL, GDNF family receptor alpha like), full length (human, UniProt Q6UXV0 19-394)
T1 construct: whole, on cells
T1 sequence (looked up): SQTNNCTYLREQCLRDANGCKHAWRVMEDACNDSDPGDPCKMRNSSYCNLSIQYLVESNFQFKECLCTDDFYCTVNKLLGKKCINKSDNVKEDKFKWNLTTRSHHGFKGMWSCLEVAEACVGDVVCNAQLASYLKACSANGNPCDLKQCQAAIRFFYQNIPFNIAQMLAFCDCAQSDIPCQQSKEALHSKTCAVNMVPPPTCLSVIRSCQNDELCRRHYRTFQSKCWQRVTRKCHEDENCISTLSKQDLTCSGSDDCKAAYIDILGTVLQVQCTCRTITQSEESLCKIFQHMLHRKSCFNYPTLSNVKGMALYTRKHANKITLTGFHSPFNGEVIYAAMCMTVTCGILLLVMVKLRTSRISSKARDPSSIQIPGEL
Experiment: SPA: displacement of 50 pM human [125I]-MIC-1 from BHK21-hGFRAL-IRES-hRET cell membranes
pIC50: −log10 of the molar value.
readoutKind: pIC50

binder	readoutKind	experimentalValue
Compound 19 (ligand, Cys-29 (residue 4 of SEQ ID NO: 288): S{Beta}-[2-[[(1S)-1-carboxy-5-[[2-[2-[2-[[2-[2-[2-[[(4S)-4-carboxy-4-[10-(4-carboxyphenoxy)decanoylamino]butanoyl]amino]ethoxy]ethoxy]acetyl]amino]ethoxy]ethoxy]acetyl]amino]pentyl]amino]-2-oxoethyl]Cys (protractor of Example 10.8), homodimer, two protractors per dimer) SEPCTSGSETPGTSESATPESGPGTSTEPSEGARGDHCPLGPGRCCRLHTVRASLEDLGWADWVLSPREVQVTMCIGACPSQFRAANMHAQIKTSLHRLKPDTVPAPCCVPASYNPMVLIQKTDTGVSLQTYDDLLAKDCHCI	pIC50	7.77
Compound 05 (ligand, Cys-26 (residue 7 of SEQ ID NO: 289): S{Beta}-[2-[2-[[2-[2-[2-[[2-[2-[2-[[(4S)-4-carboxy-4-(17-carboxyheptadecanoylamino)butanoyl]amino]ethoxy]ethoxy]acetyl]amino]ethoxy]ethoxy]acetyl]amino]ethylamino]-2-oxoethyl]Cys (protractor of Example 10.4), homodimer, two protractors per dimer) SEPATSCSETPGTSESATPESGPGTSTEPSEGARGDHCPLGPGRCCRLHTVRASLEDLGWADWVLSPREVQVTMCIGACPSQFRAANLHAQIKTSLHRLKPDTVPAPCCVPASYNPLVLIQKTDTGVSLQTYDDLLAKDCHCI	pIC50	7.64
